Hello, the source for this data is paper PMC7468319, in case you need it.

# TARGET_OR_SYSTEM: UniProt:Q06187
# Sequence (Q06187 whole entry): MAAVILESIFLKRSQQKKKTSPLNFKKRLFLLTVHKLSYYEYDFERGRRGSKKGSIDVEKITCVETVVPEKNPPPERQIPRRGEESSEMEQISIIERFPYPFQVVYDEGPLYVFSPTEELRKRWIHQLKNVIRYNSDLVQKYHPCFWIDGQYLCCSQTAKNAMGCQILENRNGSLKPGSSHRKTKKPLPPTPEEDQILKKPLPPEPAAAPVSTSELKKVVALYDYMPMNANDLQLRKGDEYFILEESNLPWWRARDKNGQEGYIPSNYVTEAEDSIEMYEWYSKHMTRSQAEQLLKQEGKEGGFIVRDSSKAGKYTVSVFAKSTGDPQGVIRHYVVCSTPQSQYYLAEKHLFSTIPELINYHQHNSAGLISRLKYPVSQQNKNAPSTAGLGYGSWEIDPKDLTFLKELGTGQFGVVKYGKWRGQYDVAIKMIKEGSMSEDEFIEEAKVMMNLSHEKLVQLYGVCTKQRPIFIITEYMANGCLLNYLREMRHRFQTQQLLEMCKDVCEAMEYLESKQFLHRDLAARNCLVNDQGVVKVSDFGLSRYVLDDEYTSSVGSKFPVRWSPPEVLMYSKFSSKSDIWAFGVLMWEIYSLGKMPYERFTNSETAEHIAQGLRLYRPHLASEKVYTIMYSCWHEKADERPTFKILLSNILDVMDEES
OBSERVATION_TYPE: pIC50
Expect pIC50 as a plain number equal to -log10 of the molar concentration.

Record C=CC(=O)Nc1cccc(N2C(=O)OC(C)c3cnc(Nc4ccc(N5CCN(C)CC5)cc4OC)nc32)c1 (stereo not shown) [Compound 2] has UniProt:Q06187 pIC50 equal to 8.15
